- Test system: HCT116
- assay_comment: viability inhibition vs untreated; higher = more cytotoxic
- measurement_setup: genotype: MTA1-KO; 400 nM; 72 h
// NB: equality with -10% counts as false (0); only viability inhibition strictly below is true (1)

Below, 3 compounds whose answers are already recorded.
C[C@H](Oc1cc(-c2cnn(C3CCNCC3)c2)cnc1N)c1c(Cl)ccc(F)c1Cl [(S)-crizotinib]: true (1)
O=C(O)c1c[nH]c2cc(Cl)c(-c3ccc(C4(O)CCC4)cc3)cc12: false (0)
Cn1cc(C[C@@H](N)C(=O)O)c2ccccc21: true (1)

Field: below-cutoff. Rule: recorded viability inhibition strictly less than -10%. Subject: Cc1ccc(S(=O)(=O)Cc2nc(-c3ccc(C(=O)NCc4cccnc4)cc3)oc2C)cc1 true (1)

Field: below-cutoff. Rule: recorded viability inhibition strictly less than -10%. Subject: CC1=C(/C=C/C(C)=C/C=C/C(C)=C/C(=O)O)C(C)(C)CCC1 true (1)

Field: below-cutoff. Rule: recorded viability inhibition strictly less than -10%. Subject: CN(C)C1CCN(C(=O)c2ccc(NC(=O)Nc3ccc(-c4nc(N5CCOCC5)nc(N5CCOCC5)n4)cc3)cc2)CC1 false (0)

Field: below-cutoff. Rule: recorded viability inhibition strictly less than -10%. Subject: O=c1[nH]cc(F)c(=O)[nH]1 true (1)
